Readings of MIC for the listed molecules
Test system: Candida albicans
Experiment: Minimum Inhibition Concentration (MIC) screen
Assay type: cell-based
Details: strain ATTC 10231

molecule	scale.unit	censoring.qualifier	MIC
CCCC1CC(=O)C=C(C)C1 (stereo not shown)	µg/mL	=	1000
CCCCC1CC(=O)C=C(C)C1 (stereo not shown)	µg/mL	=	500
CCCCCCCC1CC(=O)C=C(C)C1 (stereo not shown)	µg/mL	>	1000
CCCCC1CC(C)=CC(O)C1 (stereo not shown)	µg/mL	=	125

---

Tested on: Escherichia coli
Experiment: Minimum Inhibition Concentration (MIC) screen
Format: cell-based
Details: strain ATTC 10536
MIC listing for selected compounds.
recorded.endpoint: MIC (µg/mL)

compound	recorded.endpoint	scale.unit	censoring.qualifier	value.reported
CCCCC1CC(=O)C=C(C)C1 (stereo not shown)	MIC	µg/mL	=	500
CCCC1CC(=O)C=C(C)C1 (stereo not shown)	MIC	µg/mL	=	1000
CCCCCCCC1CC(=O)C=C(C)C1 (stereo not shown)	MIC	µg/mL	>	1000
CCCCC1CC(C)=CC(O)C1 (stereo not shown)	MIC	µg/mL	>	1000

Entry source: patent US20150125402A1
